# target-or-test-system: human thyroid hormone receptors TRα1 (Homo sapiens)
# Construct: made in house; host or cells: Sf9 insect cells (baculovirus)
# Sequence (P10827 1-410 isoform P10827-2): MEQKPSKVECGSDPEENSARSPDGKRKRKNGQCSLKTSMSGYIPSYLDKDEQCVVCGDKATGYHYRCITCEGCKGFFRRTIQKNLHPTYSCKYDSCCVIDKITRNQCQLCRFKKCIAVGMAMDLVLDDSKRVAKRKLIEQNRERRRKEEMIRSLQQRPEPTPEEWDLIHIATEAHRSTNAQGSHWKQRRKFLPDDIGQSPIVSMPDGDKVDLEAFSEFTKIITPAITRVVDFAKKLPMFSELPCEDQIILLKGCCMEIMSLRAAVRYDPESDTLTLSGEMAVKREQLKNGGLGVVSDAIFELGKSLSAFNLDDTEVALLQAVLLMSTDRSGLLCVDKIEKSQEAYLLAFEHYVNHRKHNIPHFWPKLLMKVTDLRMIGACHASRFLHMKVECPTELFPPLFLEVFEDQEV
# Sequence (P19793 whole entry partner): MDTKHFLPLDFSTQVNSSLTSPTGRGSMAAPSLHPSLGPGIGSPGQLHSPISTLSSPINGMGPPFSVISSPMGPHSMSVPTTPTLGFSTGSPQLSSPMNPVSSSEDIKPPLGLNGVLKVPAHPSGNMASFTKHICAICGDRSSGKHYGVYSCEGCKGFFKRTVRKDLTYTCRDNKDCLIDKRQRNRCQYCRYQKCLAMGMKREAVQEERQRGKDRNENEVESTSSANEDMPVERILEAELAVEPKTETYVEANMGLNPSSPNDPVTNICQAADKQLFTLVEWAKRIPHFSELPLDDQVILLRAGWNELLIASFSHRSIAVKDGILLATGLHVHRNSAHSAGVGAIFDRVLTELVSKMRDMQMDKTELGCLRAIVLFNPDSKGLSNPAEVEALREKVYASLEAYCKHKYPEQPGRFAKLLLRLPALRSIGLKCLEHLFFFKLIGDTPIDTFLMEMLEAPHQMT
# assay-comment: Receptor binding to TRα1 (gel filtration and scintillation proximity assay, labeled T3)
# condition-info: SPA data; read-out: Ki TRα
readout-name: Ki (nM)

{"columns": ["chemical-structure", "Ki (nM)"],
 "data": [
  ["O=P(O)(O)Cc1cc(Cl)c(Oc2ccc(O)c(Cc3ccc(F)cc3)c2)c(Cl)c1", 121]
]}

[A] Cc1cc(CCP(=O)(O)O)cc(C)c1Cc1ccc(O)c(Cc2ccccc2)c1
[B] Cc1cc(OCP(=O)(OCOC(=O)C(C)(C)C)OCOC(=O)C(C)(C)C)cc(C)c1Cc1ccc(O)c(C(C)C)c1
[C] CC(C)c1cc(Cc2c(Cl)cc(OCP(=O)(O)O)cc2Cl)ccc1O
[D] Cc1cc(OCP(=O)(O)O)cc(C)c1Cc1ccc(O)c(C2CC2)c1
Prompt: Could you please sort these 4 entries by Ki from high to low? Give the labels in the order specified.
Response: B, A, D, C
(B: 1670 nM, A: 794 nM, D: 129 nM, C: 67 nM)
